Reported property: IC50

Ask: What value of IC50 on EGFR (UniProt P00533) does FC(F)C(F)(F)Oc1cccc(Nc2ncnc(-c3ccnc(N4CCCCC4)c3)n2)c1 have?
Reply: > 4.5 µg/mL

Ask: What value of IC50 on EGFR (UniProt P00533) does COc1cc(Nc2ncnc(-n3c(NCc4cccc(C)c4)nc4ccccc43)n2)cc(OC)c1OC have?
Reply: > 4.5 µg/mL

Ask: What value of IC50 on EGFR (UniProt P00533) does COc1cc(Nc2ncnc(-c3ccc(N4CCNCC4)nc3)n2)cc(OC)c1OC have?
Reply: 3.5 to 4.5 µg/mL

Ask: What value of IC50 on EGFR (UniProt P00533) does COc1cc(Nc2ncnc(-n3c(N[C@H](CO)c4ccccc4)nc4ccccc43)n2)cc(OC)c1OC have?
Reply: > 4.5 µg/mL

Ask: What value of IC50 on EGFR (UniProt P00533) does CCN(CC)C(=O)C1CCCN(c2ncnc(Nc3cc(OC)c(OC)c(OC)c3)n2)C1 (stereo unspecified) have?
Reply: > 4.5 µg/mL

Ask: What value of IC50 on EGFR (UniProt P00533) does COc1cc(Nc2ncnc(Cl)n2)cc(OC)c1OC have?
Reply: > 4.5 µg/mL

Ask: What value of IC50 on EGFR (UniProt P00533) does COc1ccc(Nc2ncnc(-n3c(=O)[nH]c4ccccc43)n2)cn1 have?
Reply: > 4.5 µg/mL

Ask: What value of IC50 on EGFR (UniProt P00533) does Fc1ccc(CNc2ncccc2-c2ncnc(Nc3cccc(Cn4ccnc4)c3)n2)cc1 have?
Reply: 0.4 to 2.4 µg/mL

Ask: What value of IC50 on EGFR (UniProt P00533) does Cc1nccc(-c2cccc(Nc3ncnc(Nc4ccc5c(cnn5Cc5ccccc5)c4)n3)c2)n1 have?
Reply: < 0.4 µg/mL

Ask: What value of IC50 on EGFR (UniProt P00533) does COc1cc(Nc2ncnc(-n3c(Nc4cccc5cccnc45)nc4ccccc43)n2)cc(OC)c1OC have?
Reply: > 4.5 µg/mL

Ask: What value of IC50 on EGFR (UniProt P00533) does O=c1[nH]c2ccccc2n1-c1ncnc(Nc2ccncc2)n1 have?
Reply: > 4.5 µg/mL

Ask: What value of IC50 on EGFR (UniProt P00533) does COc1cc(Nc2ncnc(-n3ncc4ccccc43)n2)cc(OC)c1OC have?
Reply: > 4.5 µg/mL

Ask: What value of IC50 on EGFR (UniProt P00533) does CCOC(=O)N1CCC(Nc2ncnc(N3CCCc4cc(C)ccc43)n2)CC1 have?
Reply: > 4.5 µg/mL

Ask: What value of IC50 on EGFR (UniProt P00533) does COc1cc(Nc2ncnc(-n3c(N)nc4cc(Cl)ccc43)n2)cc(OC)c1OC.COc1cc(Nc2ncnc(-n3c(N)nc4ccc(Cl)cc43)n2)cc(OC)c1OC have?
Reply: > 4.5 µg/mL

Ask: What value of IC50 on EGFR (UniProt P00533) does COc1cc(Nc2ncnc(-n3c(Nc4ccc5[nH]ccc5c4)nc4ccccc43)n2)cc(OC)c1OC have?
Reply: 3.5 to 4.5 µg/mL

Ask: What value of IC50 on EGFR (UniProt P00533) does COc1cc(C)c(Nc2ncnc(Nc3cc(-c4ccc(C)cc4)n[nH]3)n2)cc1OC have?
Reply: > 4.5 µg/mL

Ask: What value of IC50 on EGFR (UniProt P00533) does COc1cc(Nc2ncnc(-n3c(=O)[nH]c4ccccc43)n2)cc(OC)c1OC have?
Reply: 3.5 to 4.5 µg/mL

Ask: What value of IC50 on EGFR (UniProt P00533) does COc1ccc(Nc2ncnc(N(C)C3CCN(C)CC3)n2)cc1OC have?
Reply: > 4.5 µg/mL

Ask: What value of IC50 on EGFR (UniProt P00533) does COc1cc(Nc2ncnc(-n3c(NCCc4ccccc4)nc4ccccc43)n2)cc(OC)c1OC have?
Reply: 0.4 to 2.4 µg/mL

Ask: What value of IC50 on EGFR (UniProt P00533) does COc1ccc(Nc2ncnc(N(C)C3CCCCC3)n2)cc1OC have?
Reply: < 0.4 µg/mL

Ask: What value of IC50 on EGFR (UniProt P00533) does COc1cccc(Nc2ncnc(Nc3cc(-c4ccccc4)n[nH]3)n2)c1 have?
Reply: 0.4 to 2.4 µg/mL

Ask: What value of IC50 on EGFR (UniProt P00533) does COc1cc(Nc2ncnc(Nc3ccc(F)c(Cl)c3)n2)cc(OC)c1OC have?
Reply: < 0.4 µg/mL

Ask: What value of IC50 on EGFR (UniProt P00533) does COc1cc(Nc2ncnc(-c3ccsc3)n2)cc(OC)c1OC have?
Reply: > 4.5 µg/mL

Ask: What value of IC50 on EGFR (UniProt P00533) does Nc1ncnc(Nc2ccc(F)cc2F)n1 have?
Reply: > 4.5 µg/mL

Ask: What value of IC50 on EGFR (UniProt P00533) does COc1cc(Nc2ncnc(-n3c(NCc4ccccc4C)nc4ccccc43)n2)cc(OC)c1OC have?
Reply: > 4.5 µg/mL

Ask: What value of IC50 on EGFR (UniProt P00533) does Fc1ccc(CNc2ncccc2-c2ncnc(Nc3ccc(N4CCOCC4)cc3)n2)cc1 have?
Reply: > 4.5 µg/mL

Ask: What value of IC50 on EGFR (UniProt P00533) does COc1cc(Nc2ncnc(-c3ccc(C)cc3)n2)cc(OC)c1OC have?
Reply: > 4.5 µg/mL

Ask: What value of IC50 on EGFR (UniProt P00533) does COCCOc1ccc(Nc2ncnc(Nc3ccc(C)c(O)c3)n2)cc1OCCOC have?
Reply: 0.4 to 2.4 µg/mL

Ask: What value of IC50 on EGFR (UniProt P00533) does COc1cc(Nc2ncnc(Nc3cc(OC)c(OC)c(OC)c3)n2)cc(OC)c1OC have?
Reply: 3.5 to 4.5 µg/mL

Ask: What value of IC50 on EGFR (UniProt P00533) does CC(=O)Nc1ccc(Nc2ncnc(-c3cccs3)n2)cc1 have?
Reply: > 4.5 µg/mL

Ask: What value of IC50 on EGFR (UniProt P00533) does COc1cc(Nc2ncnc(Nc3ccc(-c4ccccc4)cc3)n2)cc(OC)c1OC have?
Reply: 3.5 to 4.5 µg/mL

Ask: What value of IC50 on EGFR (UniProt P00533) does N#Cc1ccc(Nc2ncnc(-n3c(=O)[nH]c4ccccc43)n2)cc1 have?
Reply: > 4.5 µg/mL

Ask: What value of IC50 on EGFR (UniProt P00533) does CCC(Nc1nc2ccccc2n1-c1ncnc(Nc2cc(OC)c(OC)c(OC)c2)n1)c1ccccc1 (stereo unspecified) have?
Reply: 0.4 to 2.4 µg/mL

Ask: What value of IC50 on EGFR (UniProt P00533) does COc1cc(Nc2ncnc(Nc3cccc4cccnc34)n2)cc(OC)c1OC have?
Reply: > 4.5 µg/mL

Ask: What value of IC50 on EGFR (UniProt P00533) does COc1cc(Nc2ncnc(Nc3cccc(Oc4ccccc4)c3)n2)cc(OC)c1OC have?
Reply: 0.4 to 2.4 µg/mL

Ask: What value of IC50 on EGFR (UniProt P00533) does CCc1ccc(Nc2ncnc(-n3c(N)nc4ccccc43)n2)cc1 have?
Reply: 0.4 to 2.4 µg/mL

Ask: What value of IC50 on EGFR (UniProt P00533) does COc1cc(Nc2ncnc(Nc3ccc4c(cnn4C)c3)n2)cc(OC)c1OC have?
Reply: 0.4 to 2.4 µg/mL

Ask: What value of IC50 on EGFR (UniProt P00533) does COc1ccc(Nc2ncnc(N(C)c3ccc(S(=O)(=O)O)cc3)n2)cc1OC have?
Reply: > 4.5 µg/mL

Ask: What value of IC50 on EGFR (UniProt P00533) does COc1cc(Nc2ncnc(-c3cccnc3NCCN3CCCCC3)n2)cc(OC)c1OC have?
Reply: > 4.5 µg/mL

Ask: What value of IC50 on EGFR (UniProt P00533) does CC[C@H]1CN(c2ccc(-c3ncnc(Nc4cc(OC)c(OC)c(OC)c4)n3)cn2)CCN1 have?
Reply: > 4.5 µg/mL

Ask: What value of IC50 on EGFR (UniProt P00533) does Nc1ncnc(Nc2ccc(C3CCCCC3)cc2)n1 have?
Reply: > 4.5 µg/mL
